B1: LINE1-full (parent)
chain: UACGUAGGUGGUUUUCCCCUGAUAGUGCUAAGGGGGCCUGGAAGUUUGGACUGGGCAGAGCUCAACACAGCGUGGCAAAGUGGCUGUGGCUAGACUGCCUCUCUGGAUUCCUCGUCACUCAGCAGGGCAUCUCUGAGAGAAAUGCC

Variants of: B1
Test: self-cleavage, relative activity (ratio to wild type); higher = more cleavage; in vitro, sequencing; the parent is a self-cleaving ribozyme
So basically: self-cleavage at 1 or higher? That is Yes. Lower than 1? That is No.

Field: example entries. Status: answers known.
# input Does UACGUAGGUGGUUUUCCCCUGAUAGUGCUAAGGGGGCCUGGAAGUUUGGACUGGGCAGAGCUCAACACAGCGUGGCAAAGUGGCUGUGGCUAGACAGCCUCUCUGGAUUCCUCGUCACUCAGCAGGGCAUCUCUAAGAGAAAUGCC have a reported self-cleavage of at least 1?
# output No

# input Does UACGUAGGUGGUUUUCCCCUGAUAGUGCUAAGGGGGCCUGGAAGUUUGGACUGGGCAGAGCUCCACACAGCGUGGCAAAGUGGCUGUGGCUAGACUGCCUCUCUGGAUUCCUCGUCACUCAGCAGGGCUUCUCUGAGAGAAAUGCC have a reported self-cleavage of at least 1?
# output No

# input Does UACGUAGGUGGCUUUCCCCUGAUAGUGCUAAGGGGGCCUGGAAGUUUGGACUGGGCAGAGCUCAACACAGCGUGGCAAAGUGGCUGUGGCUAGACUGCCUCUCUGGAUUCCUCGUCACUCAGCAGGGCAUCUCUGAGAGGAAUGCC have a reported self-cleavage of at least 1?
# output Yes

Further cases:
# input Does UACGUAGGCGGUUUUCCCCUGAUAGUGCUAAGGGGGCCUGGAAGUUUGGACUGGGCAGAGCUCAUCACAGCGUGGCAAAGUGGCUGUGGCUAGACUGCCUCUCUGGAUUCCUCGUCACUCAGCAGGGCAUCUCUGAGAGAAAUGCC have a reported self-cleavage of at least 1?
# output No

# input Does UACGUAGGUGGUUUUCCCCUGAUAGUGCUAAGGGGGCCUGGAAGUUUGGACUGGGCAGAGCUCAACACAGCGUGGCAAAGUGGCUGUGGCUAGACUGCCACUCUGGAUUCCUCGUUACUCAGCAGGGCAUCUCUGAGAGAAAUGCC have a reported self-cleavage of at least 1?
# output No

# input Does UACGUAGGUGGUUUUCCCCUGAUAGUGCUAAGGGGGCCUGGAAGGUUGGACUGGGCAGAGCUCAACACAGCGUGGCAAAGUGGCUGUGGCUAGACUGCCUCUCUGGAUUCCUCGUCACUCUGCAGGGCAUCUCUGAGAGAAAUGCC have a reported self-cleavage of at least 1?
# output Yes

# input Does UACGUAGGUGGUUUUCCCCUGAUAGUGCUAAGGGGGCCUGGAAGUUUGGACUGGGCAGAGCUCAACACUGCGCGGCAAAGUGGCUGUGGCUAGACUGCCUCUCUGGAUUCCUCGUCACUCAGCAGGGCAUCUCUGAGAGAAAUGCC have a reported self-cleavage of at least 1?
# output No

# input Does UACGUAGGUGGUUUUCCCCUGAUAGUGCAAAGGGGGCCUGGAAGUUUGGACUGGGCAGAGCUCAAUACAGCGUGGCAAAGUGGCUGUGGCUAGACUGCCUCUCUGGAUUCCUCGUCACUCAGCAGGGCAUCUCUGAGAGAAAUGCC have a reported self-cleavage of at least 1?
# output No

# input Does UACGUAGGCGGUUUUCCCCUGAUAGUGCUAAGGGGGCCUGGAAGUUUGGACUGGGCAGAGCUCAACACAGCGUGGCAAAGUGGCUGUGGCUAGACUGCCUCUCUGGAUUCCUCGUCACUCAGCAGGGCAUCUCUGAGAGAAACGCC have a reported self-cleavage of at least 1?
# output Yes
